Biological target: T1, HLA-B*07:02 (human, biotinylated heavy chain)
T1 construct: Conditional HLA class I complex first loaded with a UV-labile peptide, exchanged for the test peptide after UV; also called conditional HLA class I complex
Test: UV peptide exchange + HLA class I ELISA
Returns one of TRUE or FALSE; TRUE when exchange rate vs Pos peptide is >= 10%.

| binder | label.value |
| --- | --- |
| FFKRAAEGF [P77 9-mer peptide (AR-V3 splice variant)] | TRUE |
| IQYSCMGLM [P50 9-mer peptide (AR (W742C))] | TRUE |
| FPVGAEGTF [P27 9-mer peptide (FAM126B-ORC2 fusion)] | FALSE |
| NSKMALNSL [P35 9-mer peptide (TMPRSS2-ERG fusion)] | TRUE |
| NMVENGCYL [P59 9-mer peptide (FOXA1 (F254V))] | FALSE |

Lab note: next binder to report on.
Q) Quick check: does STRRAVRRM (Synthetic 9-mer fragment) [P16 9-mer peptide (MSMB-NCOA4 fusion)] have exchange rate vs Pos peptide greater than or equal to 10%?
A) TRUE
